Ref: PubChem BioAssay (NCI)

Test system: DMS 273 small cell lung
Test: NCI tumour cell line growth inhibition, 48 h
measure.name: TGI

# input Please indicate TGI recorded for `CCn1c(=O)nc2n(-c3ccc(SC)cc3)c3ccccc3nc-2c1=O`
# output > 100 µM

----------
Tested on: OVCAR-5 ovarian
Assay: NCI tumour cell line growth inhibition, 48 h
Entries and their TGI values follow.

COc1cc(C2c3cc4c(cc3[C@@H](Nc3ccc(F)cc3)C3COC(=O)[C@H]23)OCO4)cc(OC)c1O (stereo not given in full) ... 37 µM
O=C1c2ccccc2C(=O)c2c1ccc1c3ccccc3n(-c3ccccc3)c21 ... 47 µM
CN1CCN(Cc2ccc(NC(=O)c3cncc(C#Cc4c(N)ncc5ccccc45)c3)cc2C(F)(F)F)CC1 ... 1.45 µM
C=C1C(C)C2C(Cc3ccccc3)NC(=O)C23C(OC(C)=O)C=CC(C)(O)C(=O)C(C)C/C=C/C3C1O (stereo not given) ... > 500 µM

Shift focus to the following entry.
# input Print OVCAR-5 ovarian TGI for CCC(CCCC[C@H]1CC[C@@H]2CC(=O)C[C@H]12)OC (stereo not given in full) .
# output > 100 µM
